Catalogue of kon values
Biological target: T1, DENV-IV抗原(一种NS1蛋白，购自菲鹏) (dengue virus serotype 4 (DENV-IV), UniProt P09866 775-1126, limits assumed)
T1 construct: also called DENV-IV antigen
T1 sequence (looked up): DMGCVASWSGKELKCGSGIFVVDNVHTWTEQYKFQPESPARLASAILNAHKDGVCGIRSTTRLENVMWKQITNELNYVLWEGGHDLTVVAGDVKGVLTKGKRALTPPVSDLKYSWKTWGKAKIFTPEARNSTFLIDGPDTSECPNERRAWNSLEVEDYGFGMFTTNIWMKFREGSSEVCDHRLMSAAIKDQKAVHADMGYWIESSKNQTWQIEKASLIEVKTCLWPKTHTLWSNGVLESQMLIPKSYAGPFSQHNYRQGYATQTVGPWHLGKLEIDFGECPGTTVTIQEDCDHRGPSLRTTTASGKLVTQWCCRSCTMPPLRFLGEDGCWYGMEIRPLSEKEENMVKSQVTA
Reply numerically in M⁻¹ s⁻¹, unit not repeated.

See these solved cases before continuing.
DF-5M32RMb2 (antibody, mouse IgG1, kappa, V domains shown, also called DF-8F13RMb2) VH: QVQLQQSGAELARPGASVKLSCKASGYTFLNYWMQWVKQRPGQGLEWIGAIYPGDGDTRYTQNFKGKAALTADKSSSTAYMQLSSLASEDSAVYYCATGTEGLLDYWGQGTSVTVSS VL: DAVMTQTPLTLSVLIGQPASLSCKSSQSLLESDGKTYLNWLFQRPGQSPKRLIYLVSKLESGVPDRFTGSGSGTEFTLKISRVEAEDLGVYYCWQATHHPLTFGTGTNLELKR | 31900
DF-5M32RMb3 (antibody, mouse IgG1, kappa, V domains shown, also called DF-8F13RMb3) VH: QVQLQQSGAELARPGASVKLSCKASGYTFLNYWMQWVKQRPGQGLEWIGAIYPGDGDTRYTQNFKGKAALTADKSSSTAYMQLSSLASEDSAVYYCATGTEGILDYWGQGTSVTVSS VL: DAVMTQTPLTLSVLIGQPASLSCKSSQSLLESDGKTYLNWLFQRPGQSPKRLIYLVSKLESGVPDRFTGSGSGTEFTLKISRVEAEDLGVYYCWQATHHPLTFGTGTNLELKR | 29300
DF-5M32RMb1 (antibody, mouse IgG1, kappa, V domains shown, also called Anti-DF 5M32; Anti-DF 5M32单克隆抗体 (recombinant)) VH: QVQLQQSGAELARPGASVKLSCKASGYTFINYWMQWVKQRPGQGLEWIGAIYPGDGDTRYTQNFKGKAALTADKSSSTAYMQLSSLASEDSAVYYCATGTEGILDYWGQGTSVTVSS VL: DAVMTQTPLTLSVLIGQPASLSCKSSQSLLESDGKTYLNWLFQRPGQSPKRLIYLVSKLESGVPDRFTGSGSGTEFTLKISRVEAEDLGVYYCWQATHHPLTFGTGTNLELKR | 21400

Continue with the binder presented below.
Entry DF-5M32RMb4 (antibody, mouse IgG1, kappa, V domains shown, also called DF-8F13RMb4) VH: QVQLQQSGAELARPGASVKLSCKASGYTFINYWMQWVKQRPGQGLEWIGAIYPGDGDTRYTQNFKGKAALTADKSSSTAYMQLSSLASEDSAVYYCATGTEGLLDYWGQGTSVTVSS VL: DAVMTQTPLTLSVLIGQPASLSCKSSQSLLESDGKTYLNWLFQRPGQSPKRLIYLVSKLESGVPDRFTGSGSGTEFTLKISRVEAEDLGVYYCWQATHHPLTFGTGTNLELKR — recorded kon = 33200

Origin of values: patent CN116082499A
